Origin of measurements: ChEMBL document CHEMBL3739395

- procedure-summary: Plasma concentration in Wistar rat at 100 mg/kg, po measured 3 hrs post dose
- Assay type: ADME, organism-based
The entries below are paired with their reported concentration at 3 h.
Write down the value, and be sure its unit follows.

Before answering, review these 3 worked examples.
COc1ccc(C[C@@H]2CCCN2C(=O)c2nccnc2-c2cccc(C)c2)cc1OC | 225 ng/mL
COc1ccc(C[C@@H]2CCCN2C(=O)c2ccccc2-c2ncccn2)cc1OC | 737 ng/mL
COc1ccc(C[C@@H]2CCCN2C(=O)c2nc(C)sc2-c2cccc(C)c2)cc1OC | 129 ng/mL

I would be grateful if you could share the reported concentration at 3 h for COc1ccc(C[C@@H]2CCCN2C(=O)c2ccccc2-n2nccn2)cc1OC .
114 ng/mL
